# TGI annotations
- Tested on: LOX IMVI
- Method Summary: NCI-60 cell line panel: LOX IMVI
- Assay type: cell-based
- Condition Details: Melanoma, total growth inhibition
- Experimental: It was carried out at the NCI, Bethesda, MD, USA, utilizing their standard protocol.
Measurement Label: TGI (nM)

>  <Compound>
CCN1CCN(c2ccc(NC(=O)Nc3ccc(-c4cc(C(=O)NC)c5ncccc5n4)cc3)cc2C(F)(F)F)CC1 [Compound 13c]

>  <Measurement Label>
TGI

>  <Value Observed>
2660

$$$$
>  <Compound>
CC(C)NC(=O)c1cc(-c2ccc(NC(=O)Nc3ccc(N4CCN(C)CC4)c(C(F)(F)F)c3)cc2)nc2cccnc12 [Compound 13e]

>  <Measurement Label>
TGI

>  <Value Observed>
1150

$$$$
>  <Compound>
CNC(=O)c1cc(-c2ccc(NC(=O)Nc3ccc(N4CCN(C)CC4)c(C(F)(F)F)c3)cc2)nc2cccnc12 [Compound 13b]

>  <Measurement Label>
TGI

>  <Value Observed>
24500

$$$$
>  <Compound>
CCN1CCN(c2ccc(NC(=O)Nc3ccc(-c4cc(C(=O)NC(C)C)c5ncccc5n4)cc3)cc2C(F)(F)F)CC1 [Compound 13f]

>  <Measurement Label>
TGI

>  <Value Observed>
1050

$$$$

----------
# TGI annotations
- Test system: SK-MEL-5
- Method Summary: NCI-60 cell line panel: SK-MEL-5
- Format: cell-based
- Condition Details: Melanoma, total growth inhibition

>  <Compound>
CCN1CCN(c2ccc(NC(=O)Nc3ccc(-c4cc(C(=O)NC)c5ncccc5n4)cc3)cc2C(F)(F)F)CC1 [Compound 13c]

>  <Scale Unit>
µM

>  <TGI>
4.26

$$$$
>  <Compound>
CNC(=O)c1cc(-c2ccc(NC(=O)Nc3ccc(N4CCN(C)CC4)c(C(F)(F)F)c3)cc2)nc2cccnc12 [Compound 13b]

>  <Scale Unit>
µM

>  <TGI>
31.7

$$$$
>  <Compound>
CC(C)NC(=O)c1cc(-c2ccc(NC(=O)Nc3ccc(N4CCN(C)CC4)c(C(F)(F)F)c3)cc2)nc2cccnc12 [Compound 13e]

>  <Scale Unit>
µM

>  <TGI>
1.21

$$$$
>  <Compound>
CCN1CCN(c2ccc(NC(=O)Nc3ccc(-c4cc(C(=O)NC(C)C)c5ncccc5n4)cc3)cc2C(F)(F)F)CC1 [Compound 13f]

>  <Scale Unit>
µM

>  <TGI>
5.28

$$$$

----------
- Tested on: HL-60(TB)
- Method Summary: NCI-60 cell line panel: HL-60(TB)
- Format: cell-based
- Set-up: unit not given here
- Condition Details: Leukemia, total growth inhibition
- Protocol: It was carried out at the NCI, Bethesda, MD, USA, utilizing their standard protocol.
# TGI annotations

>  <Compound>
CNC(=O)c1cc(-c2ccc(NC(=O)Nc3ccc(N4CCN(C)CC4)c(C(F)(F)F)c3)cc2)nc2cccnc12 [Compound 13b]

>  <Qualifying Sign>
=

>  <TGI>
38.7

$$$$
>  <Compound>
CCN1CCN(c2ccc(NC(=O)Nc3ccc(-c4cc(C(=O)NC(C)C)c5ncccc5n4)cc3)cc2C(F)(F)F)CC1 [Compound 13f]

>  <Qualifying Sign>
=

>  <TGI>
5.89

$$$$
>  <Compound>
CC(C)NC(=O)c1cc(-c2ccc(NC(=O)Nc3ccc(N4CCN(C)CC4)c(C(F)(F)F)c3)cc2)nc2cccnc12 [Compound 13e]

>  <Qualifying Sign>
=

>  <TGI>
2.12

$$$$
>  <Compound>
CCN1CCN(c2ccc(NC(=O)Nc3ccc(-c4cc(C(=O)NC)c5ncccc5n4)cc3)cc2C(F)(F)F)CC1 [Compound 13c]

>  <Qualifying Sign>
>

>  <TGI>
18.0

$$$$

Reference source: patent US20240308996A1
